System: SN12C renal
Assay: NCI tumour cell line growth inhibition, 48 h
MEASURED_PROPERTY: TGI

Previously resolved entries follow.
COMPOUND	TGI
COC(=O)[C@H]1C=NN[C@@H]1C(=O)N1[C@H]2CC3CC[C@@]2(CS1(=O)=O)C3(C)C	> 100 µM
O=C(Nc1ccc(N2C(=O)CSC2c2ccccc2O)cc1)c1ccc(N2C(=O)CSC2c2ccccc2O)cc1 (stereo unspecified)	> 100 µM

Looking up CC[O-].CC[O-].O=C([CH-]C(=O)c1ccccc1)CCCCCCCCC(=O)[CH-]C(=O)c1ccccc1.[Ti+4] , I found its TGI recorded as > 100 µM

Looking up COc1ccc(C2=Nn3c(nnc3-c3cc(Cl)cc(Cl)c3Cl)SC2)cc1 , I found its TGI recorded as > 100 µM

Looking up O=C1OCC2=C1C(c1cccc(F)c1)c1cc3c(cc1N2CCO)OCO3 (stereo unspecified) , I found its TGI recorded as > 50 µM

Looking up O=C1c2cccc([N+](=O)[O-])c2C(=O)N1Cc1ccccc1 , I found its TGI recorded as > 100 µM

Looking up COc1cccc(N2C(=O)CSC2c2cccc(Oc3ccccc3)c2)c1 (stereo unspecified) , I found its TGI recorded as 25 µM

Looking up N#CCCN(CCC#N)c1ccc(/C=C2\N=C(c3ccccc3)N(c3ccc(F)cc3)C2=O)cc1 , I found its TGI recorded as > 100 µM

Looking up c1ncn(C23C4C5C6C4C2C6C53)n1 (stereo unspecified) , I found its TGI recorded as > 100 µM

Looking up CNC(C)(C)Cc1ccc(Cl)cc1 , I found its TGI recorded as > 100 µM

Looking up C=CCc1c(Cl)nc(Cl)nc1Cl , I found its TGI recorded as 1.46 µM

Looking up CN1CCC(CNc2cc(C3(C(=O)Nc4cc(C(=O)Nc5ccc(Cl)c(C(F)(F)F)c5)ccc4F)CC3)ncn2)CC1 , I found its TGI recorded as 8.92 µM

Looking up Cc1c2cnccc2c(C)c2c1c1cc(C#N)ccc1n2C , I found its TGI recorded as 1.14 µM

Looking up Cc1ccc2cnc(N)c(C#Cc3cc(C(=O)Nc4ccc(CN5CCN(C)CC5)c(C(F)(F)F)c4)cnc3C)c2c1 , I found its TGI recorded as 1.06 µM

Looking up O=c1cc(-c2cccs2)[nH]c2cc3c(cc12)OCO3 , I found its TGI recorded as > 100 µM

----------
Listing of recorded TGI by entry.
Test system: MOLT-4 leukemia
Assay: NCI tumour cell line growth inhibition, 48 h

COMPOUND	READING
Cc1ccc(C)c(NC(=O)C(=O)C(C(=O)c2ccc3ccccc3c2)C2OC(=O)c3ccccc32)c1 (stereo unspecified)	> 100 µM
COc1cc2c(c3c1c(=O)c1ccccc1n3C)C=CC1(CCCC1)O2	> 100 µM
CC1=C2C(=C[C@@](C)(CO)[C@@H]2OC(=O)N(C)CCN(C)C(=O)OC(C)(C)C)C(=O)[C@](C)(O)C12CC2	> 50 µM

Looking up O=C1OCC2=C1C(c1cccc(F)c1)c1cc3c(cc1N2CCO)OCO3 (stereo unspecified) , I found its TGI recorded as > 50 µM

Looking up CCN(CCCOc1ccccc1)CCN(CC)CCCOc1ccccc1 , I found its TGI recorded as 16.8 µM

Looking up Cc1cc(C)nc(NS(=O)(=O)c2ccc(NC(=O)c3c4ccccc4nc4ccccc34)cc2)n1 , I found its TGI recorded as > 100 µM

Looking up CN(C(=O)/C=C/c1ccccc1)C1C2CN3CCC(O2)C13 (stereo unspecified) , I found its TGI recorded as > 100 µM

Looking up Cc1cc([NH-])c([NH-])cc1C.[Cl][Pt+2][Cl] , I found its TGI recorded as 41.6 µM

Looking up O=C(NCC1CC1)c1ccc(-c2cccc(C(=O)NC3CC3)c2)cc1 , I found its TGI recorded as > 25 µM

Looking up COc1ccc(N2CC(=O)N(C(=O)COc3ccc(OCC(=O)N4C(=O)CN(c5ccc(OC)cc5)C4=S)cc3)C2=S)cc1 , I found its TGI recorded as > 100 µM

Looking up Cc1ccc(Nc2nc3[nH]ccc3c(=O)[nH]2)cc1 , I found its TGI recorded as > 100 µM

Looking up CC1=C(C(=O)Nc2ccccc2C)C(c2ccc(Cl)cc2)C(C(=O)Nc2ccccc2C)=C(C)N1 , I found its TGI recorded as > 100 µM

Looking up COC(=O)Cc1cc(O)c2c(c1O)C(=O)c1ccccc1C2=O , I found its TGI recorded as > 100 µM

Looking up O=c1ncccn1[C@@H]1O[C@H](CO)[C@H](O)C1O (stereo partly specified) , I found its TGI recorded as > 100 µM

Looking up CCO/C(=N/S(=O)(=O)C(F)(F)F)N(C(C)C)C(C)C , I found its TGI recorded as > 100 µM

Looking up Cc1ccc(S(=O)(=O)NC(=O)Nc2nnc(S(N)(=O)=O)s2)cc1 , I found its TGI recorded as > 100 µM

Looking up O=C1c2cccc([N+](=O)[O-])c2C(=O)N1Cc1ccccc1 , I found its TGI recorded as > 100 µM

Looking up CC1=C([Se]CC(OC(=O)CC[Se]c2ccccc2)C(=O)NC(C)(C)C)C(=O)c2ccccc2C1=O (stereo unspecified) , I found its TGI recorded as 3.44 µM

Looking up CCOC(=O)Oc1c(OC)cc(C(=O)c2ccc(OC)c(O)c2OC)cc1OC , I found its TGI recorded as > 100 µM

Looking up O=C(O)CN(CC(=O)O)C1CCCCC1N1CC(=O)OC(=O)C1 (stereo unspecified) , I found its TGI recorded as > 100 µM

Looking up O=c1cc(-c2cccs2)[nH]c2cc3c(cc12)OCO3 , I found its TGI recorded as > 100 µM

----------
Tested on: HT29 colon
Assay: NCI tumour cell line growth inhibition, 48 h
Listing of recorded TGI by entry.

Previously resolved entries follow.
MOLECULE	TGI
CN1CCC(CNc2cc(C3(C(=O)Nc4cc(C(=O)Nc5ccc(Cl)c(C(F)(F)F)c5)ccc4F)CC3)ncn2)CC1	5.09 µM
CCCCCOc1ccc(C=Nc2ccc(CCc3ccc(N=Cc4ccc(OCCCCC)cc4)cc3)cc2)cc1	> 100 µM

The observed TGI for CNC(=S)Nc1ccc(OC)c2ccccc12 when tested with HT29 colon stands at > 10 µM

The observed TGI for N#C[Se]Cc1cc(-c2ccccc2)n(-c2ccc(S(N)(=O)=O)cc2)n1 when tested with HT29 colon stands at 3.36 µM

The observed TGI for c1ccc(-c2nc(-c3ccccn3)nc(-c3ccccn3)n2)nc1 when tested with HT29 colon stands at > 100 µM

The observed TGI for CC1=NNC(=O)C1C1C(=O)NN=C(c2c[nH]c3ccccc23)C1Br (centres undefined) when tested with HT29 colon stands at > 100 µM

The observed TGI for C[C@@H]1OC(=O)C[C@H]2CC(=O)N(CCC3CN(C(=O)OCc4ccccc4)c4ccccc43)C[C@@H]21 (some centres undefined) when tested with HT29 colon stands at > 100 µM

The observed TGI for COc1cc(/C=C/C(=O)c2c(C)nc3ccccc3c2/C=C/c2ccccc2)cc(OC)c1OC when tested with HT29 colon stands at > 100 µM

The observed TGI for CC[O-].CC[O-].O=C([CH-]C(=O)c1ccccc1)CCCCCCCCC(=O)[CH-]C(=O)c1ccccc1.[Ti+4] when tested with HT29 colon stands at > 100 µM

The observed TGI for O=C1C=CC(=O)c2c1ccc1c3ccccc3n(Cc3ccc([N+](=O)[O-])cc3)c21 when tested with HT29 colon stands at > 100 µM

The observed TGI for COc1cc(C)ccc1C(=O)c1ccc(C)cc1OC when tested with HT29 colon stands at 7.99 µM

The observed TGI for Fc1ccc(C(OCCN2CCN(CCCc3ccccc3)CC2)c2ccc(F)cc2)cc1 when tested with HT29 colon stands at 12.3 µM

The observed TGI for COc1ccc2nccc(C3=CCC4CCN(C(=O)c5ccccc5)C3C4)c2c1 (centres undefined) when tested with HT29 colon stands at > 100 µM

The observed TGI for Cn1c(=O)c2c(nc3n(CC(O)CCl)c(=O)ccn23)n(C)c1=O (centres undefined) when tested with HT29 colon stands at > 100 µM

The observed TGI for COc1ccc(N2C(=O)C3c4[nH]c5ccc(OCc6ccccc6)cc5c4C4CCC(c5ccccc5)CC4C3C2=O)cc1 (centres undefined) when tested with HT29 colon stands at > 100 µM

The observed TGI for O=C1OCC2=C1C(c1cccc(F)c1)c1cc3c(cc1N2CCO)OCO3 (centres undefined) when tested with HT29 colon stands at > 50 µM

The observed TGI for COc1ccc(N2CC(=O)N(C(=O)COc3ccc(OCC(=O)N4C(=O)CN(c5ccc(OC)cc5)C4=S)cc3)C2=S)cc1 when tested with HT29 colon stands at > 100 µM

The observed TGI for Cn1c(=O)nc2n(-c3ccc(O)cc3)c3ccccc3nc-2c1=O when tested with HT29 colon stands at > 100 µM

The observed TGI for CC(C)(C)c1ccccc1N1C(=O)c2ccc3c4c(ccc(c24)C1=O)N(c1ccccc1C(C)(C)C)C3=O when tested with HT29 colon stands at > 100 µM
